# Assayed Target: Hes1 dimer formation (Hes1-Hes1 interaction) (Rattus norvegicus, UniProt Q04666)
# Construct: Glutathione-S-transferase (GST) fused rat Hes1(3–281) protein was expressed in Escherichia coli; GST (N, cleaved yes); GST (N); made in house; host or cells: Escherichia coli JM109 (pGEX-ratHes1 3-281)
# Sequence (Q04666 3-281): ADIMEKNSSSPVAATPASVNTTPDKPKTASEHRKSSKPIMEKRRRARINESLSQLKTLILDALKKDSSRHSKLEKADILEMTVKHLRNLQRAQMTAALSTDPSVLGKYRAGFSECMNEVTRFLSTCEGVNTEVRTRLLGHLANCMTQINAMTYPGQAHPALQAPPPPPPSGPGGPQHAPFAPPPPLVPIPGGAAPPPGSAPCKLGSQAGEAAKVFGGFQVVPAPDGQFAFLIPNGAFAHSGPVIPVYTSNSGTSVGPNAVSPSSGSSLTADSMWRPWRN
# Test Description: Hes1-Hes1 interaction fluorescent plate assay (Hes1 dimer formation inhibition)
# Format: binding
# Assay Context: Hes1 dimer formation inhibitory activity IC50, Cy3-labeled Hes1 / immobilized Hes1, compound 1 h at RT
Answer each item with its documented pIC50.
One number for each entry, as −log10 of the molar value.

stdin: Name the recorded pIC50 of the item O=C(O)c1cc(O)c(O)c(O)c1 [Compound 8, gallic acid] in your answer.
stdout: 4.99

Next:
stdin: Name the recorded pIC50 of the item O=C(O)c1cc(O)c(O)c(O)c1 [Commercially available gallic acid, gallic acid, reference compound] in your answer.
stdout: 5.05
